property.name: melting point

Below, 3 molecules whose answers are already recorded.
{"columns": ["structure", "melting point"],
 "data": [
  ["COc1cc2c(cc1C(F)(F)F)N(C(=O)Nc1cc(Br)c(C)c(-c3cccnc3)c1)CC2", "216 to 218 °C"],
  ["COc1cc2c(cc1C(F)(F)F)N(C(=O)Nc1cc(OC(F)(F)F)cc(-c3cccnc3)c1)CC2", "168 to 170 °C"],
  ["COc1cc2c(cc1C(F)(F)F)N(C(=O)Nc1cncc(-c3ccc(C(F)(F)F)cc3)c1)CC2", "199 to 202 °C"]
]}

For the next question, use this molecule.
Form: molecule = `COc1cc2c(cc1C(F)(F)F)N(C(=O)Nc1cc(F)cc(-c3ccc(C)nc3)c1)CC2` ; melting point = 213 to 215 °C
